# Study target: Adenosine receptors; A1 & A3 (Homo sapiens) (UniProt P30542+P0DMS8)
# Sequence (P0DMS8 whole entry, looked up): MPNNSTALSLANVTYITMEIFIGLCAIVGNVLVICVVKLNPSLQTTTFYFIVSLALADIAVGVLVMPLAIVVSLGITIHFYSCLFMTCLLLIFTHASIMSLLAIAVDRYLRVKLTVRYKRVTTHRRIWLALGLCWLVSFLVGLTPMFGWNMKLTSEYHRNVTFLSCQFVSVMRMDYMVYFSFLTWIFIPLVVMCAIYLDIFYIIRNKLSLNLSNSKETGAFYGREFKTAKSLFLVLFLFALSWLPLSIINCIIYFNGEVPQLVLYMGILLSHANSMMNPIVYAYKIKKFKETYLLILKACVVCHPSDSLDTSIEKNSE
# Sequence (P30542 whole entry, looked up): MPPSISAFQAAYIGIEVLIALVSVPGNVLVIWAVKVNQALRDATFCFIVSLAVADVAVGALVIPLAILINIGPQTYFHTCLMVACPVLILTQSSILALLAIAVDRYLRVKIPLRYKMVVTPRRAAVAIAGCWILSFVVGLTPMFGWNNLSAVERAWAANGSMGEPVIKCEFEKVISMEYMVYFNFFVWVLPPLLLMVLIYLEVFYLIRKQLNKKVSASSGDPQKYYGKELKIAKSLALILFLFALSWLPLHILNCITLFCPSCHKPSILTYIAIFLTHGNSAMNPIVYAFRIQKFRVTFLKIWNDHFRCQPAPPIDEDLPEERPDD
# Experiment summary: Ratio of binding affinity for human adenosine A1 and A3 receptors expressed in HEK293 cells
# Type: cell-based
Attribute measured: Ratio

Answered cases to consult:
CCn1cc2c(nc(N)n3nc(-c4ccco4)nc23)n1 ... 0.0014
Nc1nc2nn(CCCc3ccccc3)cc2c2nc(-c3ccco3)nn12 ... 0.001

a. COc1ccc(NC(=O)Nc2nc3nn(CCCc4ccccc4)cc3c3nc(-c4ccco4)nn23)cc1
b. CCCn1cc2c(nc(N)n3nc(-c4ccco4)nc23)n1
c. O=C(Nc1cccc(Cl)c1)Nc1nc2nn(CCc3ccccc3)cc2c2nc(-c3ccco3)nn12
d. COc1ccc(NC(=O)Nc2nc3nn(CCc4ccccc4)cc3c3nc(-c4ccco4)nn23)cc1
**Q:** Rank ascending by Ratio. Give the order by naming the labels one after another as requested.
**A:** b, a, c, d
